System: human CETP promoter
Assay: luciferase reporter under the control of the human CETP promoter, inhibition of CETP expression
Assay type: cell-based
Settings: final concentration of 15 μM, incubated overnight, Steady Glo luciferase read by luminometer
observation_type: activity expressed as a percentage of the control

- molecule: "CCC1CCCCN1C(=Nc1ccc(OCc2ccc(C(C)(C)C)cc2)cc1)NCCCN (stereo not shown)"
  tested_target: "human CETP promoter"
  result: "33%"
- molecule: "CC(C)CCN=C(NCC(C)(C)CN)Nc1ccc(OCc2ccccc2)cc1"
  tested_target: "human CETP promoter"
  result: "46%"
- molecule: "COCCOc1ccc(N=C(NCCCN)N2CCC(C)CC2)cc1"
  tested_target: "human CETP promoter"
  result: "30%"
- molecule: "NCCCNC(=Nc1ccc(OCCCC(F)(F)F)cc1)N1CCC(Cc2ccccc2)CC1"
  tested_target: "human CETP promoter"
  result: "16%"
